Entry source: ChEMBL document CHEMBL1127468

Measured pKi accompanies every entry in the list below.
# system.name: Delta-type opioid receptor (Rattus norvegicus)
# Sequence (P33533 whole entry): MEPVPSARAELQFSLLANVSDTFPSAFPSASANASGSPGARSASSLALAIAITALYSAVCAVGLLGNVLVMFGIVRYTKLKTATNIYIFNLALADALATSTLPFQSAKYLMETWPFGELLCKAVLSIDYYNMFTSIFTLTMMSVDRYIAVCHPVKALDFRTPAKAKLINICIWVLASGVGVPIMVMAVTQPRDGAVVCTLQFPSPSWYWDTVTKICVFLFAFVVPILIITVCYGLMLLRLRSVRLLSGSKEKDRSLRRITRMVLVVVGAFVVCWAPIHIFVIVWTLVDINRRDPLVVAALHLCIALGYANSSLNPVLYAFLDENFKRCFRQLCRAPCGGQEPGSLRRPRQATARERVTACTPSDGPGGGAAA
# protocol.details: Inhibition of radioligand [3H]DADLE binding to rat brain delta receptor
pKi: −log10 of the molar value.
measured.parameter: pKi

> print(dat)
                                   molecule  value.modifier  quantitative.readout
1  CN1CCC2(c3cccc(O)c3)CC(=O)/C(=C/c3ccccc3)C1C2 (stereo not given)               <                  6.30
2  CN1CC[C@]2(c3cccc(O)c3)CC(=O)/C(=C/c3ccccc3)[C@H]1C2               =                  6.13
3  C[N+]1(C)CCC2(c3cccc(O)c3)CC(=O)/C(=C/c3ccccc3)C1C2.[I-] (stereo not given)               <                  6.00
4  CN1CCC2(c3cccc(O)c3)CC(=O)CC1C2 (stereo in doubt; 4)               =                  6.49
5  CN1CCC2(c3cccc(O)c3)CC(=O)CC1C2 (stereo in doubt)               =                  6.92

----------
# system.name: Muscarinic acetylcholine receptor
# protocol.details: Inhibition of radioligand [3H]NMS binding to muscarinic receptor of rat brain
Measured Ki accompanies every entry in the list below.
measured.parameter: Ki (µM)

> print(dat)
                                    compound  measured.parameter  quantitative.readout
 1  CN1CC[C@@]2(c3cccc(O)c3)CC(=O)/C(=C/c3ccc(Cl)c(Cl)c3)[C@H]1C2                  Ki                  18.6
 2  CN1CCC2(c3cccc(O)c3)CC(=O)/C(=C/c3ccccc3)C1C2 (stereo not given)                  Ki                  14.4
 3  CN1CCC2(c3cccc(O)c3)CC(=O)CC1C2 (stereo in doubt; 4)                  Ki                  46.4
 4  CN1CC[C@@]2(c3cccc(O)c3)CC(=O)/C(=C/c3ccc(Cl)c(Cl)c3)[C@@H]1C2                  Ki                  50.3
 5  CN1CCC2(c3cccc(O)c3)CC(=O)CC1C2 (stereo in doubt)                  Ki                  25.3
 6  CN1CC[C@]2(c3cccc(O)c3)CC(=O)/C(=C/c3ccccc3)[C@H]1C2                  Ki                    26
 7  COc1cccc(C23CCN(C)C(CC(=O)C2)C3)c1 (stereo not given)                  Ki                  23.3
 8  CN1CC[C@@]2(c3cccc(O)c3)CC(=O)/C(=C/c3ccccc3)[C@@H]1C2                  Ki                   7.4
 9  COc1cccc(C23CCN(C)C(C2)/C(=C\c2ccccc2)C(=O)C3)c1 (stereo not given)                  Ki                  11.6
10  C[N+]1(C)CCC2(c3cccc(O)c3)CC(=O)/C(=C/c3ccccc3)C1C2.[I-] (stereo not given)                  Ki                  14.7
